Listing of recorded Lowest effective dose iv by entry.
# System: male New Zealand rabbits
# assay remarks: In vivo anticoagulant effect: whole blood clotting time and plasma thrombin time
# Set-up: species or system rabbit
# condition summary: intravenous infusion for 3 hours, lowest dose required to attain therapeutic effect
Non-standard residues stand in square brackets, D forms with d. Residues, ends and D or L forms follow the SMILES beside them. dNMeaIle = CC[C@H](C)[C@@H](NC)C(=O)O
Write the answer as a number in mg/kg/h, unit excluded.

Please review the following examples before continuing.
In [3]: df
Out[3]:
                                   compound         recorded_endpoint  assay_result
0  CN[C@H](Cc1ccccc1)C(=O)N1CCC[C@H]1C(=O)N[C@H](C=O)CCCNC(=N)N.O=S(=O)(O)O  Lowest effective dose iv           0.5
1  N=C(N)NCCC[C@@H](C=O)NC(=O)[C@@H]1CCCN1C(=O)[C@H](N)Cc1ccccc1.O=S(=O)(O)O [reference compound]  Lowest effective dose iv           0.5
2  CCN[C@H](Cc1ccccc1)C(=O)N1CCC[C@H]1C(=O)N[C@H](C=O)CCCNC(=N)N.O=S(=O)(O)O  Lowest effective dose iv           0.5

Turning now to a further record.
Entry CC[C@H](C)[C@@H](NC)C(=O)N1CCC[C@H]1C(=O)N[C@H](C=O)CCCNC(=N)N.O=S(=O)(O)O (H-[dNMeaIle]-Pro-Arg-aldehyde) , Lowest effective dose iv reported as 1.0
